# Test target: T1, IL-5RaECD (the extracellular domain (ECD) of the human IL-5 receptor a chain) (human, UniProt Q01344 21-342, extensively glycosylated)
# T1 construct: extracellular domain; also called IL-5RαECD; soluble IL-5Ra
# T1 sequence (Q01344 21-342, looked up): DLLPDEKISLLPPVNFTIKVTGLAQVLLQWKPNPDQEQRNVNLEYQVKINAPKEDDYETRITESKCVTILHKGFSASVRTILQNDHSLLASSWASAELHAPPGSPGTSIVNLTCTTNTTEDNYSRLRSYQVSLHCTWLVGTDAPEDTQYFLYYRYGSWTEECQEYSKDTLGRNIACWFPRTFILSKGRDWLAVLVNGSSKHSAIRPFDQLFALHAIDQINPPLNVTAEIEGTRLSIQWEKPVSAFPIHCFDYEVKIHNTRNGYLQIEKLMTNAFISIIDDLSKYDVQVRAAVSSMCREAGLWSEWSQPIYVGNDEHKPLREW
# Measurement description: competition with [125I] IL-5 for binding to IL-5Ra ECD; peptide assayed immediately after dissolving
Readout type: IC50 (µM)
All answers are understood in µM, so give the number only.

// returns reported IC50 for input TGGGDGYVCVEWARCPTCK (three Cys in free sulfhydryl form, T0005 prints 32-50) [AF17362 (three cysteine residues in the free sulfhydryl form)] 0.12
